# TARGET_OF_ASSAY: Cy5-labelled Mcl1 (amino acids 171-321) C286S protein (UniProtKB Q07820) (Homo sapiens (Human), UniProt Q07820, C286S)
# Sequence (Q07820 171-321 C286S): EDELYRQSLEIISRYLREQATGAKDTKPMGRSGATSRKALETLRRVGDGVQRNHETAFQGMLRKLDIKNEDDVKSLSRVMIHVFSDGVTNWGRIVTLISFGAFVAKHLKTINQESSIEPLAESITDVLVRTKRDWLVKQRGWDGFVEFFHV
# PROTOCOL_TEXT: Inhibition of Mcl-1 by the fluorescence quenching assay (Example A, Method B)
# Assay type: binding
REPORTED_METRIC: Ki (nM)

# example entries with known answers
COMPOUND	Ki, nM
CC(=O)c1cc(C)c2c(c1)[C@]1(CC[C@@](Nc3cccc(Cl)c3)(C(=O)O)CC1)C(C[C@@H](C)COc1ccnc3c1[C@H](C)CCC3)C2 (single isomer, unassigned) [Example 757]	1.9
COC(C)(C)c1ccc2c(c1)[C@]1(CC[C@@](Nc3cccc(Cl)c3)(C(=O)O)CC1)[C@@H](C[C@@H](C)COc1ccnc3c1[C@H](C)CCC3)C2	0.0213

I: O=C(O)[C@]1(Nc2cccc(Cl)c2)CC[C@]2(CC1)C(CC(F)COc1ccnc3c1CCCC3)=Cc1ccccc12 (single isomer, unassigned) [Example 505]
II: C[C@@H](COc1ncnc2c1[C@H](C)CCC2)C[C@H]1Cc2ccccc2[C@]12CC[C@@](Nc1cccc(Cl)c1)(C(=O)O)CC2
III: CCC(=O)OC(C)OC(=O)[C@]1(Nc2cccc(Cl)c2)CC[C@@]2(CC1)c1cc3c(cc1C[C@@H]2C[C@@H](C)COc1ccnc2c1[C@H](C)CCC2)OCO3 (stereo partly drawn)
IV: C[C@@H](COc1ccnc2c1[C@H](C)CCC2)C[C@H]1Cc2cc3c(cc2[C@]12CC[C@@](Nc1cccc(Cl)c1)(C(=O)O)CC2)OC(C)(C)O3
Ascending by Ki, please: list the compounds accordingly. Arrange the labels as the request states and list them. IV, III, II, I
(IV: 0.0343 nM, III: 2.52 nM, II: 3.76 nM, I: 23.4 nM)
